assay: Cytotoxicity against human MT4 cells assessed as reduction in cell viability measured after 5 days by MTT assay; type: toxicity, cell-based; settings: time 5 day
Threshold check on CC50 at 120 h: strictly below 20 µM is yes; on or above 20 µM is no.

INSERT INTO results (compound, assigned_class) VALUES
  ('Cc1cc(/C=C/C#N)cc(C)c1Oc1ccnc(Nc2ccc(N3CCN(S(C)(=O)=O)CC3)c(C#N)c2)n1', 'yes'),
  ('Cc1cc(/C=C/C#N)cc(C)c1Oc1ccnc(Nc2ccc3c(c2)CN(S(C)(=O)=O)CC3)n1', 'yes'),
  ('Cc1cc(/C=C/C#N)cc(C)c1Oc1ccnc(Nc2ccc3c(c2)CCN(CCS(C)(=O)=O)C3)n1', 'yes'),
  ('Cc1cc(/C=C/C#N)cc(C)c1Oc1ccnc(Nc2ccc3c(cnn3C)c2)n1', 'no'),
  ('Cn1c(Cn2ccc(C(F)(F)F)c(Oc3cc(Cl)cc(C#N)c3)c2=O)n[nH]c1=O [DORAVIRINE]', 'no'),
  ('Cc1cc(/C=C/C#N)cc(C)c1Oc1ccnc(Nc2ccc3scnc3c2)n1', 'no'),
  ('Cc1cc(/C=C/C#N)cc(C)c1Oc1ccnc(Nc2ccc3sccc3c2)n1', 'yes'),
  ('Cc1cc(/C=C/C#N)cc(C)c1Oc1ccnc(Nc2ccc3nccn3c2)n1', 'no'),
  ('Cc1cc(/C=C/C#N)cc(C)c1Oc1ccnc(Nc2ccc3nncn3c2)n1', 'no'),
  ('Cc1cc(/C=C/C#N)cc(C)c1Oc1ccnc(Nc2ccc3c(c2)C(=O)NC3)n1', 'no'),
  ('Cc1cc(/C=C/C#N)cc(C)c1Oc1ccnc(Nc2ccc3c(c2)CN(C(=O)CS(C)(=O)=O)CC3)n1', 'yes'),
  ('Cc1cc(/C=C/C#N)cc(C)c1Oc1ccnc(Nc2ccc3oncc3c2)n1', 'yes'),
  ('Cc1cc(/C=C/C#N)cc(C)c1Oc1ccnc(Nc2ccc3nc(C#N)sc3c2)n1', 'no'),
  ('Cc1cc(/C=C/C#N)cc(C)c1Oc1ccnc(Nc2ccc3c(c2)NC(=O)C3)n1', 'no'),
  ('Cc1cc(/C=C/C#N)cc(C)c1Oc1ccnc(Nc2ccc3c(c2)CCN(S(C)(=O)=O)C3)n1', 'yes'),
  ('Cc1cc(/C=C/C#N)cc(C)c1Oc1ccnc(Nc2ccc3c(c2)C(=O)N(C)C3=O)n1', 'no');
